Source of measurements: the nanobody polyreactivity screen of Harvey et al. (2022)

- measurement protocol: yeast display, Sf9 membrane polyspecificity reagent, FACS + sequencing; frameworks hold sequencing errors
property label: polyreactivity (PSR sort gate)

Consider the reported polyreactivity (PSR sort gate) for these sequences:
QVQLVESGGGLVQAGGSLSLSCAASGRIFRRYAMGWYRQAPGKERELVAAISRGGSTYYADSVKGRFTISRDNAKNTVYLQMISLKPEDTAVYYCAAYSQSTSFGGYDSWGQGTQVTVSS = high polyreactivity
QVQLVESGGGLVQAGGSLRLSCAASGRTFSTYAMGWYRQAPGKERELVAAISTSGSRTYYADSVKGRFTISRDNAKNTVYFQMNSLKPEDTAVYYCAATPLYYRYYVWQYDYWGQGTQVTVSS = high polyreactivity
QVQLVESGGGLVQAGGSLRLSCAASGRIFDNYAMGWYRQAPGKDREWVAAISSRGRSTYYADSVKGRFTISRDNAKNTVYLQMNSLKPEDTAVYYCAKDLGYRGRYNYWGQGTQVTVSS = low polyreactivity
QVQLVESGGGLVQAGGSLRLSCAASGIIFARNAMGWYRQAPGKERELVATISRNGGRTYYADSVKGRFTISRDNAKNTVYLQMNSLKPEDTAVYYCARPYYGSWHSYGVDYWGQGTQVTVSS = high polyreactivity
QVQLVESGGGLVQAGGSLRLSCAASGFTFKRYAMGWFRQAPGKERELVSTITSRGGSTYYADSVKGRFTISRDNAKNTVYLQMNSLKPEDTAVYYCVRRYPGLPGWSSYGSYESGYWGQGSQVTVSS = high polyreactivity

What value of polyreactivity (PSR sort gate) has been reported for the following sequence? QVQLVESGRGFVQAGGSLRLSCADSGSTFRYYAMGWYRQAPGKERELVAAISWSGGSTYYADSVKGRFTISRDNAKNTVYLQMNSLKPEDTAVYYCAAEVYLVGSRWGPRYGDYWGQGTQVTVSS high polyreactivity

Now give it for QVQLVESGGGLVQAGGSLRLSCAASGRIFQRNVMGWYRQAPGKERELVASITGGGTTNYADSVKGRFTISRDNAKNTVYLQMNSLKPEDTAVYYCAKGYGASNDPGYVRKRYGYWGQGTQVTVSS too. low polyreactivity

Now give it for QVQLVESGVGLVQAGGSLRLSCAASGRIFRPYAMGWYRQAPGKERELVAAITQSGGITSYADSVKGRFTISRDNAKNTVYLQMNSLKPEDTAVYYCATTSRYTRSHYDWYDYWGQGTQVTVSS too. low polyreactivity

Now give it for QVQLEESGGGLVQAGGSLRLSCAASGRIFYRYAMGWYRQAPGKERELVAAISWSGGSTNYADSVRGRFTISRDNAKNTVYLQMNSLKPEDTAVYYCAAKYRSIRESATYYYWGQGTQVTVSS too. high polyreactivity

Now give it for QVQLVESGGGLVQAGGSLRLSCAASGFIFGYYAMGWYRQAPGKERELVARITSSGGSTYYADSVKGRFTISRDNAKNTVYLQMNSLKPEDTAVYYCAKSPRAPRYIPYGYWGQGTQVTVSS too. high polyreactivity

====

- measurement protocol: yeast display, Sf9 membrane polyspecificity reagent, FACS + sequencing; frameworks hold sequencing errors
property label: polyreactivity (PSR sort gate)

Consider the reported polyreactivity (PSR sort gate) for these sequences:
QDQLVESGGGLVQAGGSHRLTCAATGITLDNYVMGWYRQAPRTERELVAAISRTSGRTYYADSVKGRFTISRDNAKNTVYLQMHSLKPEDTGVYYCNARSRGRASGYDYWGHGTQVTVSS = high polyreactivity
QVQLVESGGGLVQAGGSLRLSCAASGSILYVYAMGWYRQAPGKERELVAAISFSGGSTYYADSVKGRFTISRDNAKNTVYLQMNSLKPEDTAVYYCAAALGPGAWYGDKYEYEYWGQGTQVTVSS = low polyreactivity
QVQLVESGGGLVQAGGSLRLSCAASGFTLKWYAMGWYRQAPGKERELVAAINDRGGNTYYADSVKGRFTISRDNAKNTVYLQMNSLKPEDTAVYYCAVRGKTYRPYYYWGQGTQVTVSS = high polyreactivity
QVQLVESGGGLVQAGGSLRLSCAASGFIFSNNDRGLYRQAPGKDREVVAVINGGGSTYYADSVKASFTISRDNAKNTVFLQMNSLKPEDTAVYYCARKSWPKERRVDPGYDYWGQGTKVTVSS = low polyreactivity
QVQLVESGGGLVQAGGSLRLSCAPSGITFQRYVMGWYRQAPGKERELVAAISFSGSSTYYADSVKGRFTISRDNAKNTVYLQMNSLKPEDTAVYYCAADGSVPKYVPYPRYYGYGYWGQGSQVTVSS = high polyreactivity

Shifting focus to the sequence that follows.
What value of polyreactivity (PSR sort gate) has been reported for the following sequence? QVQLVESGGGLVQAGRSLRLICAASGFTFYSYAMGWYRQAPGKERELVANITIGGSTYADSVKGRFTISRDNAKNTVYLQMNSLKPEDTAVYYCARGYRVVGDPLYGDYDYWGQGTQVTVSS low polyreactivity

====

- measurement protocol: yeast display, Sf9 membrane polyspecificity reagent, FACS + sequencing; frameworks hold sequencing errors
property label: polyreactivity (PSR sort gate)

Consider the reported polyreactivity (PSR sort gate) for these sequences:
QVQLVESGGGIVQAGGSLRLSCAASGFIFRYYAMGWYRHAPGKESELVATITRSGGSTYYADSVKGRFTISRDNAKNTVYLQMNSLKPEDTAVYYCAADIYWYRGYGYWGQGTQVTVSS = high polyreactivity
QVQLVESGGGLVQAGGSLRLTCAASGSTSPANTMGWYRQAPGKETEFVAGISRRGGRTYYADSVKGRFTISRDNAKNTVYLQMNSLKPEDTAVFYCATALIVRCPSRYEYWGQGTQVTVSS = high polyreactivity
QVQLVESGGGLVQAGGSLGLSCAASGIILCYYDMGWYRQAPGKERELVAAITYSGSSTYYADSVKGRFTISRDNAKNTVYLLMNSLKPEDTAVYYCNAGWFYGAIWNYDYWGQGTKVTVSS = low polyreactivity
QVQLVESGGGLVQAGGSLRLSCAASGFIFRSYVMGWYRQAPGKERELVAAITRSGVRTYYADSVKGRFTISRDNAKNTVYLQMNSLKPEDTAVYYCNADFSATRYWPGNYWGQGTQVTVSS = high polyreactivity
QVQLVESGGGLVQAGGSLRLSCAASGSIFSRYAMGWYRQAPGKERELVAAISWRGVSTYYADSVKGRFTISRDNAKNTVYLQMNSLKPEDTAVYYCAADTGRYLDSNYWGQGTQVTVSS = high polyreactivity

What value of polyreactivity (PSR sort gate) has been reported for the following sequence? QVQLVESGVGLVQAGGSLRLSCAASGRTFSYYAMGWSRQAPGKERELVAAITSSGGSTYYADSVKGRFTISRDNAKNTVYLQMNSLKPEDTAVYYCAAEIWYYLWTTFERKYDYWGQGTQVTVSS low polyreactivity

Now give it for QVQLVESGGGLVQAGGSLRLSCAASGRIIRYYAMGWYRQAPGKETELVAITSSGGRTYYADSVKGRFTISRDNAKNTVYLQMNSLKPEDTAVYYCAVDAHWPGRGERFIRLDYWGQGTQVSVSS too. low polyreactivity

Now give it for QVQLVESVGGLVQAGGSLRLSCAASGFTFNGYAMGWYRQAPGKERELVAAINISGGSTYYADSVKGRFTISRDNAKNTVYLQMNSLKPEDTAVYYCAARLWGIRYSYRYGYWGQGTQVTVSS too. high polyreactivity

Now give it for QVQLVESGGGLVQAGGSLRLSCAASGRTFIGNVMGWSRQAPGKERELVAAITRSGGSTYYADSVKGRFTISRDNAKNTVYLQMNSLKPEDTAVYYCNAVRRTGGHGDYWGQGTQVTVSS too. high polyreactivity

Now give it for QVQLVESGGGLVQAGGSLRLSCGASGIIFASNGMGWYRQAPGKERELVAAISSGGSTNYADSVKGRFTISRDNAKNTVYLQMNSLKPEDTSVYYCAADRWYREYDYWGQATQVTVSS too. low polyreactivity

Now give it for QVQLVESGGGLVQAGGSLRLSCAASGRIFYPYTMGWYRQAPGKERELVAAISSGSRTNYADSVKGRFTISRDNAKNTVYLQMNSLKPEDTAVYYCAAAAYSYKRVYQTFTFGYWGQGTQVTVSS too. high polyreactivity

====

- measurement protocol: yeast display, Sf9 membrane polyspecificity reagent, FACS + sequencing; frameworks hold sequencing errors
property label: polyreactivity (PSR sort gate)

Consider the reported polyreactivity (PSR sort gate) for these sequences:
QFQLVESGGGLVQAGGSLRLSCAASGITFRAYAMGWYRQAPGKERELVAAITGRFGRTYYADSVKGRFTISRDNENNSVYLQMNSLKPEDTAVYYCNAYLWRVTQTYDYWGQGTQVTVSS = high polyreactivity
QVQLVESGGGLVQAGGSLRLSCAASGRTFTYYAMGWYIHAPGKERELVAAITWSGGSTYYADSVKGRFTISRDNAKNSVYLHMNSLKPEDTAVYYCNKTYRQGWSWVSYRSYGSGEGYWGQGTQVTVSS = high polyreactivity
QVQLVESGGGLVQAGGSLPLSSAASGITFRLYALGWYRQAPGKERELVATITSLGGGTYYADSVKGRFTISRDNAKNTVYLQMHCLIPEDTAVYYCAADVSRPPAGFNYWGQGSQVTVSS = high polyreactivity
QVQLVESGGGLVQAGGSLRLSCAASGFTFNPYAMGWYRQAPGKERELVAAITSGGSTNYADSVKGRFTISRDNAKNTVYLQMNSLKPEDTAVYYCAADSRGYGDDSWGQGTKVTVSS = low polyreactivity
QVQLVESGGGLVQAGGSLRLSCAASGSTLGYYAMGWYRQAPGIVRELVAAISWSGGRTYYADSVKGRFTISRDYAKNTVYLQMKSLKPEDTAVYYCNALYRTHYTGSVYYSWGQGTQVSVSS = high polyreactivity
QVHLVESGGGLVQAGGSLRLSSAASGSIFDGNGMGWYRQAPGKERELVASISGDGSTNYADSVKGRFTISRDNAKNTVYLQMNSLKPEDTAVYYCNARSYLTRPWWWGGPYDYWGQGTKVTVSS = low polyreactivity
QVQLVESRGGLVQAGGSLRLSCAASGRIFVVYTMGWYRQAPGKERELVAAISWRGGTTYYADSVKRRFTISRDNAKTTVYLQMTSLIPEDTAVSYCATREWSPRGSYDYSGQGTQVTVSS = high polyreactivity
QVQLVESGGGLVHAGGSLRLSCAASGRIFYYYTKGWYRQEPGKERELVAAISSGGSTNYADSVKGRFTISRDNAKNTVYLQMNSLKPEHTAVYYWARYGGYWSLKYDYWGQGTQVTVSS = high polyreactivity
QVQLVESGGGLVQAGASLSLSSAASGYIFYRYAMGWYRQAPGKERELVAAISSNGVSTYYADSVKGRFTISRDNAKNTVYLQLISLKPEDTAVYYCARDVYASPRRYNSRYNYWGQGTQVTVSS = low polyreactivity
QVQLVESRGVLVQAGGSLRLSCAASGLTFGGNAKGWYRQAPGKERELVAAISWSDDTTDYADSVKGRFTISRDNAKNTVYLQMNSLKPEDTAVYYCAARLPFEHVDYWGQGTQVTVSS = low polyreactivity

What value of polyreactivity (PSR sort gate) has been reported for the following sequence? QVQLVESGGGLVQAGGSLRLSCAASGSTFWVNAMGWYRQAPGKERELVAAISERGGRTYYADSVKGRFTISRDNAKNTVYLQMNSLKPEDTAVYYCNRVTRSNVDYWGQGTQVTVSS high polyreactivity
